B1: FCHO1 (parent)
chain: DKLALCHLELTRKLQDLIKDVLRY

# Variants of: B1
# assay.notes: protein stability index of a GFP-peptide fusion (GPS, HEK-293T) (PSI 1-6); higher = more stable;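 further: lentivirally expressed fusions sorted by FACS into six bins by GFP to DsRed ratio, PSI derived from sequencing read proportions per bin multiplied by bin number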
# condition.parameters: c terminus: a fixed tail appended
# Lookup of reported protein stability index keyed by entry

# variant.name, protein stability index
records = [
    ("R12W", 2.44),
    ("K13N", 1.8),
    ("L8F", 2.65),
    ("K13D", 2.86),
    ("R12N", 2.54),
    ("K19R", 2.22),
    ("T11I", 1.69),
    ("T11F", 3.07),
    ("I18K", 3.16),
    ("L10S", 1.93),
    ("L17R", 2.12),
    ("K13E", 2.19),
    ("L22N", 1.47),
    ("L10E", 2.57),
    ("D1Q", 4.47),
    ("L22A", 2.73),
    ("L10R", 1.51),
    ("H7F", 2.4),
    ("K13S", 1.98),
    ("D20F", 1.87),
    ("Q15P", 1.36),
    ("C6D", 1.15),
]
